assay.protocol: Inhibition of mouse STAT5 using fluorescent probe 5-carboxyfluorescein-GpYLPQTV-NH2 after 30 mins by fluorescence polarisation assay
measure: Ki

## Input In one line, give reported Ki of the entry Cc1ccc(S(=O)(=O)N(C)CC(=O)N(Cc2ccc(C3CCCCC3)cc2)c2ccc(C(=O)O)c(O)c2)cc1 .
## Output > 25 µM

----------
assay.protocol: Lipophilicity, log P of the compound
Type: physicochemical
experimental.parameters: octanol/water
measure: logP

## Input Entry CN(CC(=O)N(Cc1ccc(C2CCCCC2)cc1)c1ccc(C(=O)O)c(O)c1)S(=O)(=O)c1cccc2ccccc12 needs its logP filled in; supply it.
## Output 5.95

----------
Test system: DU-145
assay.protocol: Cytotoxicity against human DU145 cells after 72 hrs by MTS assay
Assay type: functional, cell-based
experimental.parameters: DU-145, 72 h
measure: EC50 (µM)
Numeric answer only, unit µM assumed.

## Input Provide one value: measured EC50 of CN(CC(=O)N(Cc1ccc(C2CCCCC2)cc1)c1ccc(C(=O)O)c(O)c1)S(=O)(=O)c1cccc2ccccc12
## Output 74.5

----------
tgt: Signal transducer and activator of transcription 3 (Mus musculus, UniProt P42227)
Sequence (P42227 whole entry): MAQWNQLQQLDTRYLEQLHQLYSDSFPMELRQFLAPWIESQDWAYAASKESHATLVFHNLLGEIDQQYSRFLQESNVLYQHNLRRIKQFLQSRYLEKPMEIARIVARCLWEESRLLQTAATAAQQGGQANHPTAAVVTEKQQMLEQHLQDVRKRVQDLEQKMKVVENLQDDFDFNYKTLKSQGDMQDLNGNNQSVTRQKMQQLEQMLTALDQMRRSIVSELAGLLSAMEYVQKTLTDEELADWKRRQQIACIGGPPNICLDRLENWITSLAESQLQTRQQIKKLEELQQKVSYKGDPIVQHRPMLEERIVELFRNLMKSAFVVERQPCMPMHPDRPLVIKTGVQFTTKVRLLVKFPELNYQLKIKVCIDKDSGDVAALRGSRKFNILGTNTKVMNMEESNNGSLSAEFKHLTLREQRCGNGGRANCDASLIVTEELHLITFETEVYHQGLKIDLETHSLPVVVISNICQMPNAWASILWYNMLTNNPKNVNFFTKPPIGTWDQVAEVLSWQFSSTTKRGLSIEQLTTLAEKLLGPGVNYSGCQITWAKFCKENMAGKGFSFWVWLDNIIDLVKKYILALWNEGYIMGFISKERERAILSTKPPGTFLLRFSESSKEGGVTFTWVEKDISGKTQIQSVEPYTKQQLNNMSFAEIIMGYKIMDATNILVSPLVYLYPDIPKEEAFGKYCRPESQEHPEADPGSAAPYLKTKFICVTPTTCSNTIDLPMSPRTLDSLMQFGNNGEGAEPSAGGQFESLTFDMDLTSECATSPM
measure: Ki (µM)
Just the number please, in µM, no unit attached.

## Input Please report Ki with Signal transducer and activator of transcription 3 (Mus musculus, UniProt P42227) for item Cc1ccc(S(=O)(=O)N(C)CC(=O)N(Cc2ccc(C3CCCCC3)cc2)c2ccc(C(=O)O)c(O)c2)cc1 .
## Output 15

----------
tgt: UniProt:P42227
assay.protocol: Inhibition of STAT3 in mouse NIH3T3/vSrc nuclear extract assessed as disruption of the Stat3-DNA complex pre-incubated for 30 mins by EMSA analysis
measure: IC50 (µM)
// note: answer is a bare numeric in µM

## Input Please indicate recorded IC50 of CN(CC(=O)N(Cc1ccc(C2CCCCC2)cc1)c1ccc(C(=O)O)c(O)c1)S(=O)(=O)c1ccc(-c2ccccc2)cc1 measured with UniProt:P42227.
## Output 65.4

## Input Send back UniProt:P42227 IC50 of COc1ccc(S(=O)(=O)N(C)CC(=O)N(Cc2ccc(C3CCCCC3)cc2)c2ccc(C(=O)O)c(O)c2)cc1 only.
## Output 67.4
